Target: Shp2 (Homo sapiens (Human), UniProt Q06124)
Sequence (Q06124 205-593): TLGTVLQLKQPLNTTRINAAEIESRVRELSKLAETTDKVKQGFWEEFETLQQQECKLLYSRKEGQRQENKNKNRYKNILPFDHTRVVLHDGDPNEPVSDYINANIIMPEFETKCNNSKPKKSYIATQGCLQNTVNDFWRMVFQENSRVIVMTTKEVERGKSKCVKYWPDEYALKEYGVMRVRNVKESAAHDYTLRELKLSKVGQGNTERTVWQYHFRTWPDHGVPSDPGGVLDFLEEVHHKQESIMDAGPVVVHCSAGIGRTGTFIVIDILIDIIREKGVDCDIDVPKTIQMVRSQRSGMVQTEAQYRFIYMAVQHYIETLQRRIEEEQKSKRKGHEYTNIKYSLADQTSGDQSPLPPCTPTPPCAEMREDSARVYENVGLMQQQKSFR
Test: PTP activity assay (DiFMUP substrate) with GST-Shp2
Format: biochemical
Conditions: concentration not given
measurementKind: % PTP activity

Recorded results for 3 compounds are shown here.
COc1cccc(CNS(=O)(=O)c2ccc3c(c2)/C(=N/Nc2ccccc2Cl)C(=O)N3)c1 [HL2-016-5]	51 ± 4% (6)
COCCNS(=O)(=O)c1ccc2c(c1)/C(=N/Nc1ccccc1[N+](=O)[O-])C(=O)N2 [RPM171]	44 ± 8% (12)
O=C1Nc2ccc(S(=O)(=O)NCc3ccco3)cc2/C1=N/Nc1ccccc1[N+](=O)[O-] [RPM168]	42 + 4% (6)

# context switch: different compound, same % PTP activity
According to the records, this compound O=C1Nc2ccc(S(=O)(=O)NCc3ccco3)cc2/C1=N/Nc1ccccc1Cl [HL2-016-11] displays % PTP activity of 55 ± 7% (6)
